Origin of measurements: ChEMBL document CHEMBL4689842

So I've got a bunch of molecules here, and I need their Population Fragmented Nuclei (%) values.
# System: Fibroblast
# Protocol Details: Multiplex assay against human fibroblast
# Assay type: toxicity, cell-based
# Condition Details: 12 h, 1 µM, compound concentration 1 uM, replicate 1
Return type: number; implicit unit %.

Consider the molecule shown here: C=C1/C(=C\C=C2/CCC[C@]3(C)[C@@H]([C@H](C)/C=C/[C@H](C)C(C)C)CC[C@@H]23)C[C@@H](O)C[C@@H]1O What is its recorded Population Fragmented Nuclei (%)?
23

Consider the molecule shown here: COC(=N)c1nc2ccc3ncnc(Nc4ccc(OC)cc4F)c3c2s1 What is its recorded Population Fragmented Nuclei (%)?
30

Consider the molecule shown here: CCCS(=O)(=O)c1nc(NC2CC2)cc(-c2ccc3c(ccn3C3CC(C)(C)NC(C)(C)C3)c2)n1 What is its recorded Population Fragmented Nuclei (%)?
27

Consider the molecule shown here: CCc1cccc(CC)c1NC(=O)c1nn(C)c2c1CCc1cnc(Nc3ccc(C(=O)NC4CCN(C)CC4)cc3OC(F)(F)F)nc1-2 What is its recorded Population Fragmented Nuclei (%)?
22

Consider the molecule shown here: O=C(Nc1ccc(-c2ccnc(Nc3ccc(N4CCOCC4)cc3)n2)cc1)[C@@H]1CCCN1 What is its recorded Population Fragmented Nuclei (%)?
25
